Would you kindly list pIC50 for each of these molecules?
tested on: CCRF-CEM; experiment: Cytotoxicity against human CCRF-CEM cells assessed as reduction in cell viability incubated for 72 hrs by MTS assay; type: functional, cell-based
Keep it numeric: pIC50 is minus log10 of the concentration in mol/L.

Any idea what pIC50 was measured for CC1=CC[C@]2(C(=O)O)CC[C@]3(C)[C@H](CC[C@@H]4[C@@]5(C)CCC(=O)C(C)(C)[C@@H]5CC[C@]43C)[C@H]2[C@@H]1C ?
5.19

Any idea what pIC50 was measured for CC(C)[C@@H]1CC[C@]2(C(=O)O)CC[C@]3(C)[C@H](CC[C@@H]4[C@@]5(C)CCC(=O)C(C)(C)[C@@H]5CC[C@]43C)[C@@H]12 [DIHYDROBETULONIC ACID] ?
5.20

Any idea what pIC50 was measured for Cc1oc(=O)oc1COC(=O)[C@]12CC[C@@H](C(C)C)[C@@H]1[C@H]1CC[C@@H]3[C@@]4(C)Cc5cccnc5C(C)(C)[C@@H]4CC[C@@]3(C)[C@]1(C)CC2 ?
4.34

Any idea what pIC50 was measured for C#CCOC(=O)[C@]12CC[C@@H](C(=C)C)[C@@H]1[C@H]1CC[C@@H]3[C@@]4(C)CC[C@H](O)C(C)(C)[C@@H]4CC[C@@]3(C)[C@]1(C)CC2 ?
4.62

Any idea what pIC50 was measured for C=C(C)[C@@H]1CC[C@]2(C(=O)OCc3oc(=O)oc3C)CC[C@]3(C)[C@H](CC[C@@H]4[C@@]5(C)Cc6nccnc6C(C)(C)[C@@H]5CC[C@]43C)[C@@H]12 ?
5.44

Any idea what pIC50 was measured for C=C(C)[C@@H]1CC[C@]2(C(=O)OCc3oc(=O)oc3C)CC[C@]3(C)[C@H](CC[C@@H]4[C@@]5(C)CC[C@H](O)C(C)(C)[C@@H]5CC[C@]43C)[C@@H]12 ?
5.35

Any idea what pIC50 was measured for CC1(C)CC[C@]2(C(=O)O)CC[C@]3(C)C(=CC[C@@H]4[C@@]5(C)CCC(=O)C(C)(C)[C@@H]5CC[C@]43C)[C@@H]2C1 ?
5.02

Source: ChEMBL document CHEMBL5352436
